What growth inhibition was measured for each of the following?
assay: NCI Yeast Anticancer Drug Screen. Data for the rad50 strain (AID 155);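 also: 0% = growth of vehicle-only cultures of the same strain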; conditions: S. cerevisiae rad50 strain growth inhibition; at 50.0 µM; active compounds read high
About 79,000 compounds went through this panel and 15% of them were active in at least one assay; those are over-represented in the sample as a whole.
Please state the figure in %; there is no need to write the unit.

Quick one: growth inhibition for C/C(CC(=O)Nc1ccc(C)cc1C)=N/N=C(N)N ?
-10.8

Query Cc1cc(S(=O)(=O)Nc2n[nH]c(-c3ccc(Cl)cc3)n2)c(SSc2cc(Cl)c(C)cc2S(=O)(=O)Nc2n[nH]c(-c3ccc(Cl)cc3)n2)cc1Cl next
34.5

Subsequent entry: COc1cc2c(c3c1c(=O)c1ccccc1n3C)C=CC(C)(C)O2
10.9

Can you check O=C(NNC(=O)c1ccc2ccccc2c1)c1ccc(Cl)c(Cl)c1 next?
-13.3

Then what about the molecule Cn1ncc2c(=S)[nH]c(=O)[nH]c21 ?
3.7

Check Cc1c(C=O)cc(-c2ccccc2)n1C too.
-16.2

Ok, now CCCCCc1c(C)[nH]n(C(N)=NCCSCc2nc[nH]c2C)c1=O
31.5

// repeat for O=C(N=C1[Se]C(=Nc2ccccc2)C(=Nc2ccccc2)N1c1ccccc1)c1ccccc1 and report
9.45

Similarly, CCOC1CCC=CO1 (stereo not drawn) ?
-9.65

// next record CCCCC(O)C(C)(C)C (stereo not drawn)
1.5

Please give the result for CC(=O)NC(CCCN(Cc1ccccc1)C(=O)NCCCl)C(=O)NCc1ccccc1 (stereo not drawn) too.
13.7

Again, but for N/N=C(\NN)c1ccccc1
11.7

Now this one: Oc1ccccc1C=Nc1ccc(I)cc1.Oc1ccccc1C=Nc1ccc(I)cc1.[Co]
15.8

Subsequent entry: CCOC(=O)C1=[N+]([O-])OC2=C(O)CCCC21 (stereo not drawn)
5.7

Request: O=C(Cc1ccccc1)NN1C(=O)/C(=C\c2ccc(O)cc2)SC1=Nc1ccccc1
5.5

And the next one, O=c1[nH]c(=O)n(COCc2ccccc2)c2ccc(Br)cc12 ?
-7.55

Input O=C1c2ccccc2C(=Cc2cccnc2)c2ccccc21
35.3

Let us now turn to Cc1ccc(NC(=O)c2ccccc2N)cc1
-0.9

// query: CC(C)(O)C1OCC(C2CCC3(C)C4=CCC5C(C)(C)C(O)CCC5(C)C4CCC23C)CC1O (stereo not drawn)
23.7

Quick one: CCNCc1cc(Nc2cc(C)nc(/N=C(\N)Nc3ccc(Cl)c(Cl)c3)n2)ccc1OC
98.8

Same lookup for CCOC(=O)c1nc2cc(C(F)(F)F)ccc2nc1Nc1ccc(OC)c(OC)c1 , please.
-18.1

Likewise for COC(=O)N1c2ccccc2[C@@H](O)[C@@H]1OC ?
14.4

Next record, please: O=C(O)CCC(NC(=O)/C(=C/c1ccccc1)NC(=O)c1ccccc1)C(=O)O (stereo not drawn)
4.8

Origin of the recorded values: PubChem BioAssay (NCI)
